Tested on: Spodoptera frugiperda
Experiment: Spodoptera frugiperda spray test
Assay type: in vivo
Conditions: application rate 500 g/ha, after 7 days, maize leaf discs
measured.endpoint: efficacy (caterpillars killed) (%)
Output spec: scalar in %, unitless text.

Previously resolved entries follow.
# smiles.representation, efficacy (caterpillars killed), %
records = [
    ("CCCCNC(=O)c1cc(-c2ccc(C(F)(F)F)cc2)cc(NC(=O)C2CC2)n1", 100),
    ("N#Cc1ccc(CNC(=O)c2cc(-c3ccc(SC(F)(F)F)cc3)cc(NC(=O)C3CC3)n2)cn1", 100),
    ("N#Cc1ccc(CNC(=O)c2cc(-c3ccc(CC(F)(F)F)cc3)cc(NC(=O)C3CC3)n2)cc1", 100),
    ("O=C(NCc1ccccn1)c1cc(-c2ccc(C(F)(F)F)cc2)cc(NC(=O)C2CC2)n1", 83),
    ("CCNC(=O)c1cc(-c2ccc(C(F)(F)F)cc2)cc(NC(=O)C2CC2)n1", 100),
    ("COC(=O)C1(NC(=O)c2cc(-c3ccc(OC(F)(F)F)cc3)cc(NC(=O)C3CC3)n2)CC1", 100),
]

Now turn to the next molecule.
Enquiry: Please report the recorded efficacy (caterpillars killed) for N#Cc1ccc(CNC(=O)c2cc(-c3ccc(C(F)(F)F)cc3)cc(NC(=O)c3ccccc3Cl)n2)cc1 .
Return: 83

All figures here come from patent US20190053492A1.
